# measurement description: chemical genetic growth profiling, strain panel (AID 1159580);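 also: tested at 20 µM; growth read once vehicle control cultures reached saturation at 30 °C; 1 = growth at the plate median or of vehicle wells; lower values mean less growth of the strain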
# test conditions: S. cerevisiae deletion strains, growth OD, locus YBR279W, strain paf1, hits give low values
The campaign covered roughly 5,500 compounds. About 2,000 (36%) were called active. About 18% were inconclusive and are not listed. Some of the results follow.
# strict inequality: normalized growth < 1 yields Yes, everything else yields No

// query Would you kindly verify if normalized growth of `O=c1c(O)c(-c2ccccc2)oc2ccccc12` is strictly less than 1?
// result Yes

// query Would you kindly verify if normalized growth of `O=c1c(O)c(-c2ccc(O)cc2)oc2ccccc12` is strictly less than 1?
// result Yes

// query Would you kindly verify if normalized growth of `CC(=O)OCC1=C(C(=O)O)N2C(=O)[C@@H](NC(=O)CSc3ccncc3)[C@H]2SC1` is strictly less than 1?
// result No

// query Would you kindly verify if normalized growth of `Oc1cccc2cccnc12` is strictly less than 1?
// result Yes

###

# measurement description: chemical genetic growth profiling, strain panel (AID 1159580);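 also: tested at 20 µM; growth read once vehicle control cultures reached saturation at 30 °C; 1 = growth at the plate median or of vehicle wells; lower values mean less growth of the strain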
# test conditions: S. cerevisiae deletion strains, growth OD, locus YNL298W, strain CLA4 (second series), hits give low values
In all, about 5,500 compounds went through this assay and about 2,000 (36%) were called active. Inconclusive results (about 18%) are left out. This is one part of the list.
# strict inequality: normalized growth < 1 yields Y, everything else yields N

// query Would you kindly verify if normalized growth of `CCOC(=O)c1cnc(SCC(=O)c2ccc(Cl)cc2Cl)[nH]1` is strictly less than 1?
// result N

// query Would you kindly verify if normalized growth of `CCOC(=O)CC(=O)CSc1nnc(N)s1` is strictly less than 1?
// result N

// query Would you kindly verify if normalized growth of `N=C(N)SCc1c(F)cccc1Cl` is strictly less than 1?
// result Y

// query Would you kindly verify if normalized growth of `N#Cc1cc(I)c(C#N)c(I)c1` is strictly less than 1?
// result Y

// query Would you kindly verify if normalized growth of `O=[N+]([O-])c1ccc(NCCCCCO)nc1` is strictly less than 1?
// result Y

// query Would you kindly verify if normalized growth of `O=C(CNc1cccc(Cl)c1)c1ccc(Cl)cc1` is strictly less than 1?
// result Y

// query Would you kindly verify if normalized growth of `O=C(OCCNc1ccc([N+](=O)[O-])cn1)c1ccc([N+](=O)[O-])o1` is strictly less than 1?
// result Y

// query Would you kindly verify if normalized growth of `O=C1c2ccccc2C(=O)N1CNc1cccc(Cl)c1` is strictly less than 1?
// result Y

###

# measurement description: chemical genetic growth profiling, strain panel (AID 1159580);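 also: tested at 20 µM; growth read once vehicle control cultures reached saturation at 30 °C; 1 = growth at the plate median or of vehicle wells; lower values mean less growth of the strain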
# test conditions: S. cerevisiae deletion strains, growth OD, locus YKR026C, strain gcn3
Among all 5,500 compounds or so, about 2,000 (36%) were called active. About 18% were inconclusive and are not listed. Rule as the data show it: active = normalized growth mostly below about 0.91 (no sharp cut-off); inconclusive = no clear call, values can overlap the other calls; inactive = mostly above about 0.92. This is one part of the list.
The reply should be one of these categories: 1 for active, -1 for inactive

// query Just curious, what result did `O=C1C=C(O)c2ccccc2C1=O` get here?
// result 1

// query Just curious, what result did `CCC[C@@H]1C[C@@H](C(=O)N[C@H]([C@H]2O[C@H](SC)[C@H](O)[C@@H](O)[C@H]2O)[C@H](C)O)N(C)C1` get here?
// result -1

// query Just curious, what result did `CC(C)[C@@H]1CC[C@@H](C)C[C@H]1OC(=O)c1ccccc1` get here?
// result -1

// query Just curious, what result did CC12CCC(OC(=O)c3ccccc3)CC1CCc1ccccc12 (configuration not stated) get here?
// result -1

// query Just curious, what result did `O=C(O)c1cccnc1C(=O)O` get here?
// result -1

// query Just curious, what result did `COc1ccc(NS(=O)(=O)c2ccc(N)cc2)nn1` get here?
// result -1

// query Just curious, what result did `O=C1c2ccccc2C(=O)c2ccccc21` get here?
// result -1

// query Just curious, what result did CC12CCC(O)CC1CCc1ccccc12 (configuration not stated) get here?
// result -1

// query Just curious, what result did CC(=O)O[C@@H]1C2CC[C@@H]3C1(C[C@@H](O)[C@@]1(O)[C@@H](C[C@H](O)C1(C)C)[C@]3(C)O)C[C@@]2(C)O (some centres not stated) get here?
// result -1

// query Just curious, what result did `Oc1cccc2cccnc12` get here?
// result 1

// query Just curious, what result did CC(=O)OC1CCC2(O)CC1(C)CCC1C2CC1(C)C (configuration not stated) get here?
// result -1

// query Just curious, what result did CC(=O)NC1C(O)OC(COS(=O)(=O)O)C(OC2OC(C(=O)O)C(OC3OC(CO)C(OC4OC(C(=O)O)C(O)C(O)C4OS(=O)(=O)O)C(OS(=O)(=O)O)C3NS(=O)(=O)O)C(O)C2OS(=O)(=O)O)C1O (configuration not stated) get here?
// result -1

// query Just curious, what result did O=C(O)C1=C(CSc2nnnn2CS(=O)(=O)O)CS[C@@H]2C(NC(=O)[C@H](O)c3ccccc3)C(=O)N12 (some centres not stated) get here?
// result -1

// query Just curious, what result did CC(=O)Oc1c(C)c(C)c2c(c1C)CCC(C)(CCCC(C)CCCC(C)CCCC(C)C)O2 (configuration not stated) get here?
// result -1

// query Just curious, what result did CC(=CC1CCC(C)C2C1=C(C)CC2O)C(=O)O (configuration not stated) get here?
// result -1

// query Just curious, what result did `CNC(C)(C)Cc1ccccc1` get here?
// result -1

// query Just curious, what result did `O=C(O)[C@H]1/C(=C/CO)O[C@@H]2CC(=O)N21` get here?
// result -1

// query Just curious, what result did COCC1=C(C(=O)OC(C)OC(=O)OC(C)C)N2C(=O)[C@@H](NC(=O)/C(=N\OC)c3csc(N)n3)[C@H]2SC1 (some centres not stated) get here?
// result -1

// query Just curious, what result did CC(C)C1CCC(C(=O)N[C@@H](Cc2ccccc2)C(=O)O)CC1 (some centres not stated) get here?
// result -1

// query Just curious, what result did `CC1=C(C(=O)O)N2C(=O)[C@@H](NC(=O)[C@@H](N)c3ccc(O)cc3)[C@H]2SC1` get here?
// result -1

// query Just curious, what result did CC(=O)OC1CCC23CC1(C)CCC2C(C)(C)CC3OC(C)=O (configuration not stated) get here?
// result -1

// query Just curious, what result did `CON` get here?
// result -1
